Reported inhibition at 0.1 µM values for the following compounds.
Assayed target: P2X7 receptor (Homo sapiens, UniProt Q99572)
Construct: host or cells: THP-1 cells differentiated with LPS and IFN-γ
Sequence (Q99572 1-595): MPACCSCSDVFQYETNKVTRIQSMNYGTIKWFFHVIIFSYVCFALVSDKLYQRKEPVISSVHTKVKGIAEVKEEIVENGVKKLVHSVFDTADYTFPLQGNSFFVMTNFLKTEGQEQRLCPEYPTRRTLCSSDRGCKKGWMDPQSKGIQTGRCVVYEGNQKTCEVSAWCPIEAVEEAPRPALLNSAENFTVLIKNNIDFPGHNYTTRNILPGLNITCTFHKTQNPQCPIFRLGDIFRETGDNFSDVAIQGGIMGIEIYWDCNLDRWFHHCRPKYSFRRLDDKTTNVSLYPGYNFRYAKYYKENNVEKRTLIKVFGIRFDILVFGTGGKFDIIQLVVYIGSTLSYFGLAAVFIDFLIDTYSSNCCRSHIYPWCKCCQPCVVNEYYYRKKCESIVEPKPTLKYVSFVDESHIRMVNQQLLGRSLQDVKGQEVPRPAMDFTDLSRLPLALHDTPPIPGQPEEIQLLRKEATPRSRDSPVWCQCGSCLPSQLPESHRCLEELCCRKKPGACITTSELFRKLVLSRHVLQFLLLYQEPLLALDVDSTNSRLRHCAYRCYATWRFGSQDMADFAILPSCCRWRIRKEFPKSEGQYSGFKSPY
Assay notes: Alternate method for IL-1β release assay (differentiated THP-1 cells, BzATP-stimulated, ELISA)
Type: cell-based
Cond: P2X7; 0.1 μM compound (symbols + to ++++); read-out: IL-1β % inhib @ 0.1 μM

# Compound, inhibition at 0.1 µM
data = [
    ("O=C(OCCSCc1ccccc1)N1CCc2c(ncnc2NCC23CC4CC(CC(C4)C2)C3)C1 [Compound 334]", "25 to 50%"),
    ("O=C(O[C@@H]1CCOC1)N1CCc2c(ncnc2NCC23CC4CC(CC(C4)C2)C3)C1 [Compound 250]", "0 to 25%"),
    ("Cc1cc(COC(=O)N2CCc3c(ncnc3NCC34CC5CC(CC(C5)C3)C4)C2)nn1C [Compound 347]", "50 to 75%"),
    ("CN(CC(=O)N1CCc2c(ncnc2NCC23CC4CC(CC(C4)C2)C3)C1)Cc1ccccc1 [Compound 260]", "> 75%"),
    ("OC12CC3CC(C1)CC(CNc1ncnc4c1CCN(Cc1ccccc1)C4)(C3)C2 [Compound 326]", "> 75%"),
    ("O=C(OCc1ccoc1)N1CCc2c(ncnc2NCC23CC4CC(CC(C4)C2)C3)C1 [Compound 340]", "50 to 75%"),
    ("CC(C)[C@H](NC(=O)OC(C)(C)C)C(=O)N1CCc2c(ncnc2NCC23CC4CC(CC(C4)C2)C3)C1 [Compound 351]", "> 75%"),
    ("Cc1cc(COC(=O)N2CCc3c(ncnc3NCC34CC5CC(CC(C5)C3)C4)C2)no1 [Compound 330]", "0 to 25%"),
    ("O=C(OCc1ccncc1)N1CCc2c(ncnc2NCC23CC4CC(CC(C4)C2)C3)C1 [Compound 343]", "0 to 25%"),
    ("O=C(OCc1cncs1)N1CCc2c(ncnc2NCC23CC4CC(CC(C4)C2)C3)C1 [Compound 349]", "0 to 25%"),
    ("O=C(OCc1ccc(F)cc1)N1CCc2c(ncnc2NCC23CC4CC(CC(C4)C2)C3)C1 [Compound 327]", "50 to 75%"),
    ("O=C(SCc1c(F)cccc1Cl)N1CCc2c(ncnc2NCC23CC4CC(CC(C4)C2)C3)C1 [Compound 344]", "25 to 50%"),
    ("O=C(OCc1ccc(C(F)(F)F)cc1)N1CCc2c(ncnc2NCC23CC4CC(CC(C4)C2)C3)C1 [Compound 324]", "50 to 75%"),
    ("O=C(SCc1ccc(F)cc1)N1CCc2c(ncnc2NCC23CC4CC(CC(C4)C2)C3)C1 [Compound 335]", "0 to 25%"),
    ("O=C(OCc1ccccc1F)N1CCc2c(ncnc2NCC23CC4CC(CC(C4)C2)C3)C1 [Compound 337]", "0 to 25%"),
]
